pIC50: −log10 of the molar value.
Hi! I'm sharing some pIC50 results obtained with Mitogen-activated protein kinase 1 (Homo sapiens, UniProt P28482).
Sequence (P28482 whole entry): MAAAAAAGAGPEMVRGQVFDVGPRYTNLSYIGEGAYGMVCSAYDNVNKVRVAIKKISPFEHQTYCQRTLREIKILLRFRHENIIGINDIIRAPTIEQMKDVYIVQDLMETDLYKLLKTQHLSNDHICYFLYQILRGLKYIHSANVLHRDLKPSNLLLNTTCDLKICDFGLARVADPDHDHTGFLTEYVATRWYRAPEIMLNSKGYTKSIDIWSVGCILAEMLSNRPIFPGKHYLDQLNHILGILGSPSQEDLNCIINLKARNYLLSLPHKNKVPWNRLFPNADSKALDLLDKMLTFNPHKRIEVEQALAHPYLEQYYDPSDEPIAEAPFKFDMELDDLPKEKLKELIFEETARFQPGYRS
endpoint name: pIC50

a = CCn1ncc2cc3nc(c21)CCCO[C@@H](O)[C@H](c1ccccc1)NC(=O)N3
b = CCn1ncc2cc3nc(c21)CCCO[C@H](O)[C@H](c1ccccc1)NC(=O)N3
stdin: Could you please tell me which of these two has the higher pIC50: a or b ? To answer, give the label that identifies your chosen option.
stdout: b
(b: 7.61, a: 6.93)
